# Tgt: Luciferin 4-monooxygenase (Photinus pyralis, UniProt P08659)
# Sequence (P08659 whole entry): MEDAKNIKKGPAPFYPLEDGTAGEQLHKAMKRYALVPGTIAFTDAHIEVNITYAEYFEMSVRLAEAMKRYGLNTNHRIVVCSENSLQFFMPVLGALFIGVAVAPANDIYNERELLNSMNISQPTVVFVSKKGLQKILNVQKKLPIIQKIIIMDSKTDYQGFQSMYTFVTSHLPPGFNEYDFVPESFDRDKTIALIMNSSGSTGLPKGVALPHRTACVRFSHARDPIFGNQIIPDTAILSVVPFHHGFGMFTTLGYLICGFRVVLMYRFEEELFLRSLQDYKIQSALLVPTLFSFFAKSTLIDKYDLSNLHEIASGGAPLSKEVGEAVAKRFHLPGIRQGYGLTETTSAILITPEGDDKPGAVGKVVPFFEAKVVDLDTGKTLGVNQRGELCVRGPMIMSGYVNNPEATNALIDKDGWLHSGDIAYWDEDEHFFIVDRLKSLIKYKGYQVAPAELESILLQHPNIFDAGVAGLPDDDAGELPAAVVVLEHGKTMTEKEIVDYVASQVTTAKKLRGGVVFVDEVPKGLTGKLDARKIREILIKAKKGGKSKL
# Test Method Notes: firefly luciferase enzyme inhibitors, dose response, biochemical, luminescence (AID 1891)
Active and inactive are the calls of the source.
Property Name: EC50

[
  {
    "Compound": "CCOc1cc(/C=N/NC(=O)N/N=C/c2ccc(O)c(OCC)c2)ccc1O",
    "Tgt": "Luciferin 4-monooxygenase (Photinus pyralis, UniProt P08659)",
    "Reported Result": "1.2 µM (active)"
  },
  {
    "Compound": "COC(=O)c1c(-c2cccnc2)csc1NC(=O)c1ccc2c(c1)OCO2",
    "Tgt": "Luciferin 4-monooxygenase (Photinus pyralis, UniProt P08659)",
    "Reported Result": "0.77 µM (active)"
  },
  {
    "Compound": "COc1ccc2nc(NC(=O)c3ccoc3C)sc2c1",
    "Tgt": "Luciferin 4-monooxygenase (Photinus pyralis, UniProt P08659)",
    "Reported Result": "0.263 µM (active)"
  },
  {
    "Compound": "COc1cccc(/C=N/NC(=O)C(=O)N/N=C/c2cccc(OC)c2OC)c1OC",
    "Tgt": "Luciferin 4-monooxygenase (Photinus pyralis, UniProt P08659)",
    "Reported Result": "> 112 µM (not active)"
  },
  {
    "Compound": "CN1CCN(/C=N/c2sc3c(c2C#N)CCCCC3)CC1",
    "Tgt": "Luciferin 4-monooxygenase (Photinus pyralis, UniProt P08659)",
    "Reported Result": "> 112 µM (not active)"
  },
  {
    "Compound": "CCN(CC)S(=O)(=O)c1ccc2c(c1)nc(CCC(=O)O)n2C",
    "Tgt": "Luciferin 4-monooxygenase (Photinus pyralis, UniProt P08659)",
    "Reported Result": "> 112 µM (not active)"
  },
  {
    "Compound": "OC1=C(/C=N/c2ccc3c(c2)OCO3)CCc2ccccc21",
    "Tgt": "Luciferin 4-monooxygenase (Photinus pyralis, UniProt P08659)",
    "Reported Result": "0.871 µM (active)"
  },
  {
    "Compound": "Nc1ccn(-c2ccc(Cl)cc2)c(=O)c1",
    "Tgt": "Luciferin 4-monooxygenase (Photinus pyralis, UniProt P08659)",
    "Reported Result": "> 112 µM (not active)"
  },
  {
    "Compound": "COC(=O)c1c(NC(=O)C2CC(=O)NN2Cc2ccccc2)sc(C)c1C (centres undefined)",
    "Tgt": "Luciferin 4-monooxygenase (Photinus pyralis, UniProt P08659)",
    "Reported Result": "> 112 µM (not active)"
  }
]

----------
# Tgt: Fatty acid synthase (Homo sapiens)
# Sequence (P49327 whole entry, the tested form may be a part): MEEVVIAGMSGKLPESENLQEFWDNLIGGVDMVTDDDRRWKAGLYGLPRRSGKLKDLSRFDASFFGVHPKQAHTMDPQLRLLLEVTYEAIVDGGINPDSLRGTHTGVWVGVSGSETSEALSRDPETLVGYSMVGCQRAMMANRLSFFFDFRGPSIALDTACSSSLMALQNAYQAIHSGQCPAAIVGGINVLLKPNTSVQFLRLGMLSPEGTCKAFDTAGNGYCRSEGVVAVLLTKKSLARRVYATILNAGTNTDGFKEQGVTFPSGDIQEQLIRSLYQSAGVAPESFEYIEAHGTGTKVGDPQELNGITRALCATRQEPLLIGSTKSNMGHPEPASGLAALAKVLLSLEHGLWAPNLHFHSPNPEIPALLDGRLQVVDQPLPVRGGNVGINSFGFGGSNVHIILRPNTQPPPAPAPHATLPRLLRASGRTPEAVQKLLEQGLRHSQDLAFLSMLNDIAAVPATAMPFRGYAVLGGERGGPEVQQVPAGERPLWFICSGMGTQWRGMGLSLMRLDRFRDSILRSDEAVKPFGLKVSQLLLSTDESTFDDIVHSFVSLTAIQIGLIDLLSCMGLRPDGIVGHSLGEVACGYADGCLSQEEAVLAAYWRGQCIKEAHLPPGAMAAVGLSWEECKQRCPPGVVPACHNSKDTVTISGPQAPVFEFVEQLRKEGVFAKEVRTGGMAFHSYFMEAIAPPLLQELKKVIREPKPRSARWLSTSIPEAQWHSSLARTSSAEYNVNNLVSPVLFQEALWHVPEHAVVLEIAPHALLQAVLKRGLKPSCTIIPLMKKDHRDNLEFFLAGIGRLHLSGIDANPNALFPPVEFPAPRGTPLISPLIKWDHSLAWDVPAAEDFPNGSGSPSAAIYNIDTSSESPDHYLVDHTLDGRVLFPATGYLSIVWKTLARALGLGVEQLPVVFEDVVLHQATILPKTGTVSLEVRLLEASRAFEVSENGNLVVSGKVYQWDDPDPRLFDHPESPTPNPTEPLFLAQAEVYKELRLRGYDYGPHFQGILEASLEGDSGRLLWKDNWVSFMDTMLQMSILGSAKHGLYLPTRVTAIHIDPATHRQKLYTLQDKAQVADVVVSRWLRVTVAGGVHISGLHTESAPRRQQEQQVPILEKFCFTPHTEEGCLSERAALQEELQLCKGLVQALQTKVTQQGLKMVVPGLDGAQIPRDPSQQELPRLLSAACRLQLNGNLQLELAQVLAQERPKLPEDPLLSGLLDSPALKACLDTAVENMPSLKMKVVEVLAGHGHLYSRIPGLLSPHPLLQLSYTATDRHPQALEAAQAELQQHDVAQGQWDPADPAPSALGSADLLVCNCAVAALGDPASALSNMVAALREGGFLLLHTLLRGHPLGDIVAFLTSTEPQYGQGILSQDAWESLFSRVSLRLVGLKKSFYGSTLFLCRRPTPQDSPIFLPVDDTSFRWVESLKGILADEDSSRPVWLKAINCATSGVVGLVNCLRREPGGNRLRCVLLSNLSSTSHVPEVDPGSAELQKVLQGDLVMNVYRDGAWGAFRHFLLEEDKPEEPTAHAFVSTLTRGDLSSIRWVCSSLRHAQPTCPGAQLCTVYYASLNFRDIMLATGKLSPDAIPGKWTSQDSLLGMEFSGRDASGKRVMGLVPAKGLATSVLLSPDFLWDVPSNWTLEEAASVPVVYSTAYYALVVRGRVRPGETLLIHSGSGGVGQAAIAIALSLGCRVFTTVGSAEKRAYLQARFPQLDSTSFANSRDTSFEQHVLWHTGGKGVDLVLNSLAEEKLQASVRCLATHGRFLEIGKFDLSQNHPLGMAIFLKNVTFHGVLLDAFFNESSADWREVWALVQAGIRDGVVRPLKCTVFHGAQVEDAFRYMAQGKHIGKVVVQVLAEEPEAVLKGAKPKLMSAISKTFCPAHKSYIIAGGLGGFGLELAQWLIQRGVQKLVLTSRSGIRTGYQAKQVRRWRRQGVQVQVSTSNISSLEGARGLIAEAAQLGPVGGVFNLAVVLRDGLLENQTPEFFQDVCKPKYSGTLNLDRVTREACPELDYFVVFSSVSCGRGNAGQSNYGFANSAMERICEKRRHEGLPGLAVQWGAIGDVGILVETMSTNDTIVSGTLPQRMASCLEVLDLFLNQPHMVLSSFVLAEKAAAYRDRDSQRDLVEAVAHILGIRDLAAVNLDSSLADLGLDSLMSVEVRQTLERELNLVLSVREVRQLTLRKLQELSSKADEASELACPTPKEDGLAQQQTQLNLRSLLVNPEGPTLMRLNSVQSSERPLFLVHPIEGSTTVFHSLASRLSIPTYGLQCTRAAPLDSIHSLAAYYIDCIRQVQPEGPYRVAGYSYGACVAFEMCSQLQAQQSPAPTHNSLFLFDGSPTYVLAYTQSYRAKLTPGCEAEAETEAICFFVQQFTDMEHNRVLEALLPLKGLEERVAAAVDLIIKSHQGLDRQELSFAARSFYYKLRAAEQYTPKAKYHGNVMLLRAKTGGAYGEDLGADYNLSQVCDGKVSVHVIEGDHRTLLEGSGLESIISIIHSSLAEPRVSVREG
# Test Method Notes: FAS thioesterase domain inhibitors, dose response, biochemical, endpoint fluorescence intensity, uHTS hits (AID 624327);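 note: fluorescence from hydrolysis of an O-methyl fluorescein acyl ester substrate by the enzyme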
# Format: functional
Activity calls are given as the source filed them.
IC50 by entry:

[
  {
    "Compound": "Cc1ccc(-c2nnc(COC(=O)c3cc(O)nc4ccccc34)o2)cc1",
    "IC50": "10.4 µM (active)"
  },
  {
    "Compound": "CCc1cccc(NC(=O)COC(=O)c2cc([N+](=O)[O-])ccc2N2CCOCC2)c1",
    "IC50": "0.29 µM (active)"
  },
  {
    "Compound": "CCOC(=O)NN=C1c2ccccc2-c2nc3nonc3nc21",
    "IC50": "1.67 µM (active)"
  },
  {
    "Compound": "Cc1ccc([N+](=O)[O-])cc1NC(=O)CCSc1ccc(Cl)cc1",
    "IC50": "6.23 µM (active)"
  },
  {
    "Compound": "CC(C)Oc1ccc(C2CC(=O)N(Nc3ccc([N+](=O)[O-])cc3[N+](=O)[O-])C2=O)cc1 (centres undefined)",
    "IC50": "0.577 µM (active)"
  },
  {
    "Compound": "CCN(c1ccccc1)S(=O)(=O)c1ccc(NC(=O)c2nc(S(C)(=O)=O)ncc2Cl)cc1",
    "IC50": "6.22 µM (active)"
  },
  {
    "Compound": "O=C(COC(=O)c1cc([N+](=O)[O-])ccc1N1CCOCC1)Nc1c(Cl)cccc1Cl",
    "IC50": "7.85 µM (active)"
  },
  {
    "Compound": "O=C(CCNC(=O)c1ccc([N+](=O)[O-])cc1)NCCc1ccccc1",
    "IC50": "10.3 µM (active)"
  },
  {
    "Compound": "O=C(COC(=O)c1cc([N+](=O)[O-])ccc1N1CCOCC1)NCc1ccccc1",
    "IC50": "0.841 µM (active)"
  }
]
